Attribution: PubChem BioAssay AID2599

# Target under test: Sentrin-specific protease 6 (Homo sapiens) (UniProt Q9GZR1)
# Sequence (Q9GZR1 628-1112 limits assumed): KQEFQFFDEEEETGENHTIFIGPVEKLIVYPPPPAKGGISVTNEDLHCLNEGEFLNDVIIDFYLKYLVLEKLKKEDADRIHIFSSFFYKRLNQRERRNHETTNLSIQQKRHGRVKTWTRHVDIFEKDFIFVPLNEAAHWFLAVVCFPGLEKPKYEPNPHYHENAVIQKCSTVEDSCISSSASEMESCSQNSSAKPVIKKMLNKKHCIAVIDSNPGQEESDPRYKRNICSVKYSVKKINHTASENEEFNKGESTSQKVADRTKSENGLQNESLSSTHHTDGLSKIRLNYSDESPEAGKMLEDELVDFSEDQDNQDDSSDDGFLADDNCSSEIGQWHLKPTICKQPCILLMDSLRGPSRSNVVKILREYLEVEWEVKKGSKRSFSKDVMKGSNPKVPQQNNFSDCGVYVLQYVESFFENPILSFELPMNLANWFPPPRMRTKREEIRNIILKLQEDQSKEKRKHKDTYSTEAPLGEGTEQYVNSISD
# Test details: SENP6 protease inhibitors, primary screen, biochemical, luminescence, uHTS (AID 2599);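 further: plate controls were DMSO wells with enzyme for no effect and DMSO wells lacking enzyme for full effect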
# Conditions: Recombinant SENP6 catalytic domain, aminoluciferin luminescence; at 10 µM
In all, about 330,000 compounds went through this assay and about 5,800 (1.8%) were called active.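 How the source made its calls: active means inhibition above about 50% at the single tested dose (limit read from the data); inactive means the rest.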 The list comes from a sample in which actives are over-represented; it also holds close analogues and randomly drawn compounds.
Select the matching outcome among true (1) = active, false (0) = inactive

Would you please look over these solved cases?
Cc1ccc(-c2ccnc3nc(Sc4ncc(C(F)(F)F)cc4Cl)nn23)cc1
false (0)
Cc1cc(C(=O)NNC(=O)c2ccccc2O)c(C)o1
false (0)
O=C(/C=C/c1ccc2c(c1)OCO2)NCc1ccc(F)cc1
false (0)
COc1ccc(C/C(C)=N/NC(=O)c2cc(C)oc2C)cc1
false (0)
Cc1cccc(OC(=O)c2sc3ncn(C)c(=O)c3c2C)c1
true (1)

Could you now consider this next compound?
Record request — test call for "Cc1ccc(S(=O)(=O)NCC(=O)N(CC(=O)NC2CCCCC2)Cc2ccco2)cc1"
false (0)

* * *

# Target under test: Sentrin-specific protease 6 (Homo sapiens)
# Test details: SENP6 protease inhibitors, primary screen, biochemical, luminescence, uHTS (AID 2599);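 further: plate controls were DMSO wells with enzyme for no effect and DMSO wells lacking enzyme for full effect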
# Conditions: Recombinant SENP6 catalytic domain, aminoluciferin luminescence; at 10 µM; active compounds read high
About 5,800 (1.8%) of roughly 330,000 compounds were called active. The entries come from a sample that favours actives as a whole.
Property: inhibition

Here's what some known entries look like.
O=C(CN1CCCCC1)Nc1ccccc1C(=O)NC1CC1
-13.9% (inactive)
O=C(NCCCn1ccnc1)c1cc(-c2ccccc2)on1
13.4% (inactive)
Cc1ccc(S(=O)(=O)N(C)CC(=O)OCC(=O)N2CC(=O)Nc3ccccc32)cc1
-8.14% (inactive)
Cc1ccc(-c2cn3cc(C)ccc3n2)cc1
65.4% (active)

Entry "O=C(/C=C/c1ccc2c(c1)OCO2)NCc1cn2cc(Cl)ccc2n1" , tested on Sentrin-specific protease 6 (Homo sapiens), has a reported inhibition of -4.65% (inactive)

Value (inhibition, Sentrin-specific protease 6 (Homo sapiens)) for record "O=c1[nH]c(CCl)nc2cc(-c3ccc(Cl)cc3)sc12" = 94.6% (active)

Tested on Sentrin-specific protease 6 (Homo sapiens), the item "Cc1ccc(C(=O)NNC2=Nc3cc([N+](=O)[O-])ccc3OC2)cc1" showed inhibition equal to -18.4% (inactive)

I looked up "COc1ccc(-c2cn3ccc(C)cc3n2)cc1" and its inhibition for Sentrin-specific protease 6 (Homo sapiens) was -9.63% (inactive)

inhibition of CCOc1ccc(CN2CCN(CCCc3ccccc3)C(CCO)C2)cc1 (stereo not drawn) , assay on Sentrin-specific protease 6 (Homo sapiens), is 9.84% (inactive)

// returns inhibition for "O=c1[nH]c(CN2CCOCC2)nc2cc(Cl)ccc12" with Sentrin-specific protease 6 (Homo sapiens); value = 0.886% (inactive)

* * *

# Target under test: Sentrin-specific protease 6 (Homo sapiens) (UniProt Q9GZR1)
# Test details: SENP6 protease inhibitors, primary screen, biochemical, luminescence, uHTS (AID 2599);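 further: plate controls were DMSO wells with enzyme for no effect and DMSO wells lacking enzyme for full effect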
# Conditions: Recombinant SENP6 catalytic domain, aminoluciferin luminescence; at 10 µM; active compounds read high
About 5,800 (1.8%) of roughly 330,000 compounds were called active. Only a selection was taken, and actives are over-represented in it overall.
Property: inhibition (%)
Numbers only; they are read as %.

O=C1COc2ccc(S(=O)(=O)Nc3ccc(OC(F)(F)F)cc3)cc2N1
-6.08
COc1ccc(C(=O)Nc2ccc3nc(N4CCCCC4)cc(C)c3c2)cc1OC
-7.43
O=C(Nc1nnc(CCOCCOCCc2nnc(NC(=O)c3ccco3)s2)s1)c1ccco1
14.7

Memo: CC(OC(=O)CNS(=O)(=O)/C=C/c1ccccc1)C(=O)Nc1ccc(S(=O)(=O)N2CCCC2)cc1 (stereo not given) , reported inhibition: 1.69

Measured inhibition of "C[C@@H]1CN([C@@H](C)CO)C(=O)c2cccc(NS(=O)(=O)c3ccc(F)cc3)c2O[C@H]1CN(C)C(=O)NC1CCCCC1" : -9.28

Reported inhibition for "Clc1ccc(C2=CSC3=Nc4cccc5cccc(c45)N23)cc1" was 82.2

Per the records, this compound ( "O=C(Nc1ccc(NC(=O)c2ccc3c(c2)OCO3)cc1)c1cccc(Cl)c1" ) has inhibition equal to -11.5

The value of inhibition measured for the compound "CN(Cc1c(F)cccc1Cl)C(=O)CNC(=O)c1ccc2c(c1)OCO2" turned out to be -13.3

Kindly note the recorded inhibition for C=CCOc1ccc(C2/C(=C(\O)c3c(C)[nH]c(C(=O)OC)c3C)C(=O)C(=O)N2CCN(C)C)cc1 (stereo not given) , which is 9.74

Looking up "O=C(Nc1cccc(O)c1)c1ccc(C(=O)c2ccccc2)o1" , I see its inhibition listed as 2.68
